tested on: Plasmodium falciparum; assay: Antimalarial activity against PYR-sensitive Plasmodium falciparum TM4/8.2 expressing wild type DHFR incubated for 24 hrs by [3H]-hypoxanthine incorporation assay
Outcome measure: IC50
Entry format: amount then unit.

Query CCOC(=O)c1ccc(-c2ccc(OCCCCOc3c(N)nc(N)nc3CC)cc2)cc1 yields IC50 of 225 nM

* * *

experiment: Cytotoxicity against African green monkey Vero cells assessed as reduction in cell viability incubated for 72 hrs by sulforhodamine B assay
Outcome measure: IC50 at 72 h

Query CCOC(=O)c1ccc(-c2ccc(OCCCCOc3c(N)nc(N)nc3CC)cc2)cc1 yields IC50 at 72 h of > 50 µM

* * *

assay: in vitro; conditions: rat, liver microsomes
Description: Intrinsic clearance in rat liver microsomes incubated up to 60 mins in presence of NADPH by LC-MS/MS analysis
Outcome measure: microsomal CLint at 1 h

Query CCc1nc(N)nc(N)c1OCCCOc1ccccc1CCC(=O)O yields microsomal CLint at 1 h of < 3 µL/min/mg

* * *

experiment: physchem; settings: octanol/phosphate buffer, pH 7.4
Description: Lipophilicity, log D of the compound in octanol/phosphate buffer at pH 7.4 at 100 uM incubated for 2 hrs by HPLC analysis
Outcome measure: logD at 2 h, 100 µM

Query CCOC(=O)c1ccc(-c2ccc(OCCCCOc3c(N)nc(N)nc3CC)cc2)cc1 yields logD at 2 h, 100 µM of > 2.5

* * *

assay: Cytotoxicity against African green monkey Vero cells assessed as reduction in cell viability
Outcome measure: IC50

Query CCc1nc(N)nc(N)c1OCCCOc1ccccc1CCC(=O)O yields IC50 of > 100 µM

* * *

test: Inhibition of wild type Plasmodium falciparum DHFR N51I/C59R/S108N/I164L quadruple mutant expressed in Escherichia coli BL21(DE3) pLysS cells assessed as inhibition constant using DHF as substrate measured for 80 sec in presence of NADPH
Outcome measure: Ki (nM)
One number for each entry, in nM.

Query CCOC(=O)c1ccc(-c2ccc(OCCCCOc3c(N)nc(N)nc3CC)cc2)cc1 yields Ki of 0.99

* * *

assay: in vitro; conditions: human, liver microsomes
Description: Intrinsic clearance in human liver microsomes incubated up to 60 mins in presence of NADPH by LC-MS/MS analysis
Outcome measure: microsomal CLint at 1 h

Query CCc1nc(N)nc(N)c1OCCCOc1ccccc1CCC(=O)O yields microsomal CLint at 1 h of < 3 µL/min/mg

* * *

experiment: Inhibition of Plasmodium falciparum DHFR N51I/C59R/S108N/I164L quadruple mutant
Outcome measure: pKi
Numbers only, as −log10 of the molar value.

Query CCc1nc(N)nc(N)c1OCCCOc1ccccc1CCC(=O)O yields pKi of 9.27

* * *

test system: Plasmodium falciparum; experiment: Antimalarial activity against PYR-sensitive Plasmodium falciparum TM4/8.2 expressing wild type DHFR by [3H]-hypoxanthine incorporation assay; settings: TM4/8.2, 3 h
Outcome measure: IC50
Entry format: amount then unit.

Query CCc1nc(N)nc(N)c1OCCCOc1ccccc1CCC(=O)O yields IC50 of 5 nM
